Each entry below carries its recorded half-life at 20 μM.
assay: in vitro; conditions: both, SD, rat, plasma (EDTA)
Bridge positions count the residues as written; N and C are the ends. Square brackets hold non-standard residues; d marks the D form. Peptide text beside a SMILES is read from it. Trp(7-Me) = Cc1cccc2c(C[C@H](N)C(=O)O)c[nH]c12; 2Nal = N[C@@H](Cc1ccc2ccccc2c1)C(=O)O; AEF = NCCOc1ccc(C[C@H](N)C(=O)O)cc1; Cit = NC(=O)NCCC[C@H](N)C(=O)O; Pen = CC(C)(S)[C@H](N)C(=O)O; αMeK = C[C@](N)(CCCCN)C(=O)O; βAla = NCCC(=O)O

{"COMPOUND": "CC(=O)NCCCC[C@H](NC(=O)[C@](C)(CCCN)NC(=O)[C@H](Cc1ccc2ccccc2c1)NC(=O)[C@H](Cc1ccc(OCCN)cc1)NC(=O)[C@H]1NC(=O)[C@H](CCC(N)=O)NC(=O)[C@H](Cc2c[nH]c3c(C)cccc23)NC(=O)[C@H]([C@@H](C)O)NC(=O)[C@H](CC(N)=O)NC(=O)[C@@H](NC(C)=O)C(C)(C)SSC1(C)C)C(=O)N[C@@H](CC(N)=O)C(=O)NCCC(N)=O [compound 278]", "half-life at 20 μM": "> 24 h"}
{"COMPOUND": "CC(=O)NCCCC[C@H](NC(=O)[C@](C)(CCCCN)NC(=O)[C@H](Cc1ccc2ccccc2c1)NC(=O)[C@H](Cc1ccc(OCCN)cc1)NC(=O)[C@H]1NC(=O)[C@H](CCCNC(N)=O)NC(=O)[C@H](Cc2c[nH]c3c(C)cccc23)NC(=O)[C@H]([C@@H](C)O)NC(=O)[C@H](CC(N)=O)NC(=O)[C@@H](NC(C)=O)C(C)(C)SSC1(C)C)C(=O)N[C@@H](CC(N)=O)C(=O)N[C@H](Cc1ccc(O)cc1)C(N)=O [compound 259] (Ac-[Pen]NT[Trp(7-Me)][Cit][Pen][AEF][2Nal][αMeK]K(Ac)N[dY]-NH2; disulfide 1-6)", "half-life at 20 μM": "> 24 h"}
{"COMPOUND": "CC(=O)N[C@@H]1C(=O)N[C@@H](CC(N)=O)C(=O)N[C@@H]([C@@H](C)O)C(=O)N[C@@H](Cc2c[nH]c3c(C)cccc23)C(=O)N[C@@H](CCC(N)=O)C(=O)N[C@H](C(=O)N[C@@H](Cc2ccc(OCCN)cc2)C(=O)N[C@@H](Cc2ccc3ccccc3c2)C(=O)N[C@@](C)(CCCCN)C(=O)NC(C)(C)C(=O)N[C@@H](CC(N)=O)C(=O)NCCC(N)=O)C(C)(C)SSC1(C)C [compound 236]", "half-life at 20 μM": "> 19.8 h"}

Problem: Suppose we examine the compound CC(=O)NCCCC[C@H](NC(=O)[C@](C)(CCCCN)NC(=O)[C@H](Cc1ccc2ccccc2c1)NC(=O)[C@H](Cc1ccc(OCCN)cc1)NC(=O)[C@H]1NC(=O)[C@H](CCC(N)=O)NC(=O)[C@H](Cc2c[nH]c3c(C)cccc23)NC(=O)[C@H]([C@@H](C)O)NC(=O)[C@H](CCCNC(N)=O)NC(=O)[C@@H](NC(C)=O)C(C)(C)SSC1(C)C)C(=O)N[C@@H](CC(N)=O)C(=O)NCCC(N)=O [compound 238] (Ac-[Pen][Cit]T[Trp(7-Me)]Q[Pen][AEF][2Nal][αMeK]K(Ac)N[βAla]-NH2; disulfide 1-6) ; what half-life at 20 μM value has been reported?
Result: > 24 h

Problem: Next compound up: CC[C@H](C)[C@H](NC(=O)[C@H](CC(N)=O)NC(=O)[C@H](CCCCNC(C)=O)NC(=O)[C@](C)(CCCCN)NC(=O)[C@H](Cc1ccc2ccccc2c1)NC(=O)[C@H](Cc1ccc(OCCN)cc1)NC(=O)[C@H]1NC(=O)[C@H](CCCCNC(C)=O)NC(=O)[C@H](Cc2c[nH]c3c(C)cccc23)NC(=O)[C@H]([C@@H](C)O)NC(=O)[C@H](CC(N)=O)NC(=O)[C@@H](NC(C)=O)C(C)(C)SSC1(C)C)C(N)=O [compound 255]
Result: > 24 h
